Assay: in vitro
reported.metric: CC50

CC50 for COc1ccc(NC(=O)Cn2c(=O)n(Cc3ccco3)c(=O)c3sc4ccccc4c32)c(OC)c1 ?
> 50 µM
